biological target: Serine/threonine-protein phosphatase PP1-alpha catalytic subunit (Homo sapiens); experiment: inhibition of human PP1 catalytic subunit – biochemical, fluorescence, OMFP substrate, single point, counter-screen for PP5 inhibitor project, primary screen (AID 2235); settings: purified PP1alpha, at 6.7 µM, hits give high values
The whole screen tested about 320,000 compounds, of which about 2,800 (0.88%) were called active. Shown is part of a subset that was picked to be rich in actives.
measured quantity: inhibition (%)
Enter your answer as a number in %; do not include the unit.

Ask: Would you kindly share the measured inhibition for C#CCOCCOCCOCCNc1nc(N2CCN(C(=O)C([C@@H](C)CC)n3cc(C(N)COC(=O)C(F)(F)F)nn3)CC2)nc(N2CCN(C(=O)[C@H](CCCCN)n3cc(C(N)CC(C)C)nn3)CC2)n1 (some centres undefined) ?
Reply: 8.45

Ask: Would you kindly share the measured inhibition for C#CCOCCOCCOCCNc1nc(N2CCN(C(=O)[C@H](C(C)C)n3cc(CCO)nn3)CC2)nc(N2CCN(C(=O)[C@H](C(C)C)n3cc(CCO)nn3)CC2)n1 ?
Reply: -0.91

Ask: Would you kindly share the measured inhibition for Cc1cc(C(=O)OCC(=O)NCc2ccco2)c(C)n1-c1ccccc1 ?
Reply: -0.54

Ask: Would you kindly share the measured inhibition for O=C(/C=C/c1ccco1)Nc1ccc(Oc2ccccc2)cc1 ?
Reply: 3.61

Ask: Would you kindly share the measured inhibition for CSC1=NCCN1C(=O)Cc1cccc2ccccc12 ?
Reply: -1.43

Ask: Would you kindly share the measured inhibition for C#CCOCCOCCOCCNc1nc(N2CCN(C(=O)CCCCCCCCCCNC(=O)[C@H]([C@@H](C)CC)n3cc(CCCCN=C(N)N)nn3)CC2)nc(N2CCN(C(=O)CCCCCCCCCCNC(=O)[C@H](CO)n3cc(CCCSC)nn3)CC2)n1 ?
Reply: 53.8

Ask: Would you kindly share the measured inhibition for CCc1cccc(NC(=O)COC(=O)C2CCN(c3ccc(C(F)(F)F)cn3)CC2)c1 ?
Reply: 3.82

Ask: Would you kindly share the measured inhibition for CC(C)(C)NC(=O)Cn1c(SCC(=O)Nc2nccs2)nc2ccccc21 ?
Reply: -0.87

Ask: Would you kindly share the measured inhibition for COc1cc(/C=C/C(=O)OCC(=O)NC(=O)NCc2ccccc2)ccc1OCC#N ?
Reply: -4.2

Ask: Would you kindly share the measured inhibition for C#CCOCCOCCOCCNc1nc(N2CCN(C(=O)CCCCCCCCCCNC(=O)Cn3cc(CCCCCN)nn3)CC2)nc(N2CCN(C(=O)CCCCCCCCCCNC(=O)[C@H](CO)n3cc(CCCSC)nn3)CC2)n1 ?
Reply: 64.7

Ask: Would you kindly share the measured inhibition for Cc1ccc(N2C(=O)C3C4C=CC(CC4)C3C2=O)cc1Br (centres undefined) ?
Reply: -2.3

Ask: Would you kindly share the measured inhibition for CCN(CC(=O)Nc1ccc(NC(C)=O)cc1)C(=O)CSC(=S)N1CCCC1 ?
Reply: -1.09

Ask: Would you kindly share the measured inhibition for Oc1c(Cl)cc(Cl)c(Cl)c1Cc1c(O)c(Cl)cc(Cl)c1Cl ?
Reply: 21

Ask: Would you kindly share the measured inhibition for C=CCn1c(=N)n(CC(O)COc2ccc(OC)cc2)c2ccccc21 (centres undefined) ?
Reply: -0.92

Ask: Would you kindly share the measured inhibition for COc1cc(S(=O)(=O)Nc2ncn[nH]2)ccc1Cl ?
Reply: -0.04

Ask: Would you kindly share the measured inhibition for Cc1cccc(OCC(O)Cn2c(=N)n(CCN3CCOCC3)c3ccccc32)c1 (centres undefined) ?
Reply: 26

Ask: Would you kindly share the measured inhibition for CCOc1ccc(/C=C/C(=O)OCC(=O)c2ccccc2OC)cc1OC ?
Reply: 23.7

Ask: Would you kindly share the measured inhibition for Cc1ccc(CNC(=O)CCN2C(=O)[C@@H]3Cc4ccccc4CN3C2=O)cc1 ?
Reply: 3.38

Ask: Would you kindly share the measured inhibition for CCOc1ccc(C(O)Cn2c(=N)n(CCN3CCCCC3)c3ccccc32)cc1 (centres undefined) ?
Reply: 0.66
